B1: ZNF263 (parent)
chain: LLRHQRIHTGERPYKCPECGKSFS

Variants of: B1
Experiment: protein stability index of a GFP-peptide fusion (GPS, HEK-293T) (PSI 1-6); higher = more stable;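 note: lentivirally expressed fusions sorted by FACS into six bins by GFP to DsRed ratio, PSI derived from sequencing read proportions per bin multiplied by bin number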
Settings: c terminus: a fixed tail appended
Hi there, I'd appreciate the recorded protein stability index for every entry that follows.
Answers are plain numbers.

Example entries and their recorded answers appear below.
> print(dat)
   variant.description          outcome.measure  reported.result
1                 G20S  protein stability index             1.95
2                  H8T  protein stability index                2
3                  H8P  protein stability index              3.3

Count: 7. Required value per item: protein stability index.
1. H4R
2. T9E
3. K21T
4. I7W
5. G20A
6. H8Q
7. R6M

// result
3.38
2.62
2.16
2.17
2.05
2.52
2.08

Please state, for each entry, its recorded protein stability index.
1. I7K
2. H4P
3. R12P
4. E11M
5. C19I
6. E18T
7. S24D

// result
[2.14, 2.25, 2.52, 1.99, 1.81, 2.25, 2.36]
